Origin of the recorded values: ChEMBL document CHEMBL1777766

System: Streptococcus pneumoniae
protocol details: Antibacterial activity against Streptococcus pneumoniae ATCC 6301
Assay type: functional
Recorded MIC, one value per entry.
I only need the number, in µg/mL, no unit after it.

Worked examples follow.
{"columns": ["molecule", "uom", "MIC"],
 "data": [
  ["CCO/N=C1\\CCN(c2c(F)cc3c(=O)c(C(=O)O)cn(C4CC4)c3c2OC)CC1CN (racemic)", "µg/mL", 8],
  ["CCO/N=C1\\CCN(c2c(F)cc3c(=O)c(C(=O)O)cn(C4CC4)c3c2OC(F)F)CC1CN (racemic)", "µg/mL", 8],
  ["CCO/N=C1\\CCN(c2c(F)cc3c(=O)c(C(=O)O)cn(CCF)c3c2F)CC1CN (racemic)", "µg/mL", 64],
  ["CCO/N=C1\\CCN(c2nc3c(cc2F)c(=O)c(C(=O)O)cn3-c2ccc(F)cc2F)CC1CN (racemic)", "µg/mL", 2],
  ["CO/N=C1\\CN(c2nc3c(cc2F)c(=O)c(C(=O)O)cn3C2CC2)CC1CN (centres undefined) [GEMIFLOXACIN]", "µg/mL", 0.5]
]}

Shifting focus to the molecule that follows.
// query Please give the measured MIC for this molecule: CO/N=C1\CCN(c2c(F)cc3c(=O)c(C(=O)O)cn(CCF)c3c2F)CC1CN (racemic)
// result 32
